Consider the following compounds and their measured IC50 readings.
Target Or Test System: BACE2 (Homo sapiens)
Construct: recombinant BACE2 protein in a final concentration of 0.4 μg/ml
Sequence (Q9Y5Z0 63-518): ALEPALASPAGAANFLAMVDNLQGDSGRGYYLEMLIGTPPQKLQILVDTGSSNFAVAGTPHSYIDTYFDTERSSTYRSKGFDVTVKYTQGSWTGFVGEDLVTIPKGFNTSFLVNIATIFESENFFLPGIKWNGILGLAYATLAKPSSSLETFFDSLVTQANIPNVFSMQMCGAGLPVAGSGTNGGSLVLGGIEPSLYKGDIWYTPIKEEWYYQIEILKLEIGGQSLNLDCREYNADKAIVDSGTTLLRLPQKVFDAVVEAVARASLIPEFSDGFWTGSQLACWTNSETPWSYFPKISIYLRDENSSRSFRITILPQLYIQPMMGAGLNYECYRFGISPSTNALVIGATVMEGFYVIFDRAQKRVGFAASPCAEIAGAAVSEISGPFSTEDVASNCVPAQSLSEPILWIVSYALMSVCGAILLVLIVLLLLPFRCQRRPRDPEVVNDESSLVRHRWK
Test: BACE2 biochemical FRET based assay
Settings: recombinant BACE2, 450 min, pH 5.0; read-out: BACE2 Biochemical FRET based assay pIC50 (converted)
Measured Quantity: IC50 (nM)

[
  {
    "Compound": "C[C@@]1(c2cc(NC(=O)c3ccc(C#N)cn3)ccc2F)Cn2c(cnc2C(F)F)C(N)=N1",
    "Measured Quantity": "IC50",
    "Unit String": "nM",
    "Reported": 15.8
  },
  {
    "Compound": "Cc1cc(C#N)cnc1C(=O)Nc1ccc(F)c([C@]2(C)Cn3cncc3C(N)=N2)c1",
    "Measured Quantity": "IC50",
    "Unit String": "nM",
    "Reported": 8.13
  },
  {
    "Compound": "COc1cnc(C(=O)Nc2ccc(F)c(C3(CF)Cn4cncc4C(N)=N3)c2)cn1 (single isomer, unassigned) [Compound 15]",
    "Measured Quantity": "IC50",
    "Unit String": "nM",
    "Reported": 37.2
  },
  {
    "Compound": "C[C@@]1(c2cc(-c3cncnc3)ccc2F)Cn2cncc2C(N)=N1",
    "Measured Quantity": "IC50",
    "Unit String": "nM",
    "Reported": 7240
  },
  {
    "Compound": "COc1cnc(C(=O)Nc2ccc(F)c([C@]3(C)Cn4c(cnc4C(F)F)C(N)=N3)c2)cn1",
    "Measured Quantity": "IC50",
    "Unit String": "nM",
    "Reported": 24
  },
  {
    "Compound": "Cc1nc(C(=O)Nc2ccc(F)c([C@]3(C)Cn4cncc4C(N)=N3)c2)co1",
    "Measured Quantity": "IC50",
    "Unit String": "nM",
    "Reported": 6.46
  },
  {
    "Compound": "C[C@@]1(c2cc(NC(=O)c3ccc(Cl)cn3)ccc2F)Cn2cncc2C(N)=N1",
    "Measured Quantity": "IC50",
    "Unit String": "nM",
    "Reported": 4.07
  },
  {
    "Compound": "C[C@@]1(c2cc(NC(=O)c3ccc(C#N)cn3)ccc2F)Cn2c(cnc2C#N)C(N)=N1",
    "Measured Quantity": "IC50",
    "Unit String": "nM",
    "Reported": 2.14
  }
]
